- Tested on: Saccharomyces cerevisiae
- METHOD NOTES: protein stability index of tFT-peptide fusion (C-terminal peptide) (PSI (0-1 scale)); higher = more stable (slower turnover);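 also: PSI is a weighted mean of sequencing reads over stability bins, variants kept only with over 10 reads, mCherry proximal and sfGFP distal, peptide attached via GGGS linker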
- CONDITION SET: genetic background: wild type; temperature: 30 C
Rule: protein stability index of 0.7 or more gives criterion met; anything lower gives criterion not met.

The examples below pair each entry with its known result.
INSERT INTO results (seq_text, category) VALUES
  ('LSLFPFLPSPCP', 'criterion met'),
  ('KNGQGQRKIPGK', 'criterion met'),
  ('PPPRPPASLPSL', 'criterion not met'),
  ('GVLQEYIGKKQK', 'criterion met'),
  ('QSAGGTRAKFGG', 'criterion not met'),
  ('SSSPPPPPPSPS', 'criterion met');

Field: next sequence
Reported protein stability index at or above 0.7? SGLVAFSVCCRG criterion not met

====

- System: Saccharomyces cerevisiae
- METHOD NOTES: protein stability index of tFT-peptide fusion (C-terminal peptide) (PSI (0-1 scale)); higher = more stable (slower turnover)
- CONDITION SET: genetic background: wild type; temperature: 30 C
PARAMETER MEASURED: protein stability index
Lab note: write the figure by itself, no unit.

Solved cases below.
INSERT INTO assay_data (seq_text, parameter_measured, obs_value) VALUES
  ('GDSESRTWCQNL', 'protein stability index', 0.548),
  ('LVVGFRVGLRGV', 'protein stability index', 0.669),
  ('FRCGLDFRWYVI', 'protein stability index', 0.62);

In one line, give reported protein stability index of the entry FDVYIKVRGGDI . 0.64

In one line, give reported protein stability index of the entry PCPRPTPLPPFP . 0.701

In one line, give reported protein stability index of the entry NTCKMRTRNIKA . 0.635

In one line, give reported protein stability index of the entry PTPHPHTGSLEG . 0.651

In one line, give reported protein stability index of the entry CRLATILRITAL . 0.384

In one line, give reported protein stability index of the entry SVFGCLPFDLMV . 0.735

In one line, give reported protein stability index of the entry VVTSVLCGRVHL . 0.682

In one line, give reported protein stability index of the entry RPPLPPPPPLPP . 0.578

====

- System: Saccharomyces cerevisiae
- METHOD NOTES: protein stability index of tFT-peptide fusion (C-terminal peptide) (PSI (0-1 scale)); higher = more stable (slower turnover)
- CONDITION SET: genetic background: wild type; temperature: 30 C
PARAMETER MEASURED: protein stability index
Lab note: write the figure by itself, no unit.

Solved cases below.
INSERT INTO assay_data (seq_text, obs_value) VALUES
  ('KRITRKRIKRRR', 0.777),
  ('AVGVCGGGWWWA', 0.792),
  ('LYSAHLAPGNAD', 0.656),
  ('FSCLCLCVATSG', 0.23);

Under Saccharomyces cerevisiae, report protein stability index for CAVGPQSSSCPR 0.56

Under Saccharomyces cerevisiae, report protein stability index for CTVPGLTPKCIY 0.581

Under Saccharomyces cerevisiae, report protein stability index for PLPPPPPPSFPP 0.769

====

- System: Saccharomyces cerevisiae
- METHOD NOTES: protein stability index of tFT-peptide fusion (C-terminal peptide) (PSI (0-1 scale)); higher = more stable (slower turnover)
- CONDITION SET: genetic background: cdc34-1; temperature: 37 C
PARAMETER MEASURED: protein stability index

INSERT INTO measurements (seq_text, tested_system, obs_value) VALUES
  ('WTRAHWFFQFFV', 'Saccharomyces cerevisiae', 0.334),
  ('DTHSRARAVLIA', 'Saccharomyces cerevisiae', 0.656),
  ('FSFSFYFALASF', 'Saccharomyces cerevisiae', 0.474),
  ('SVLRCPVILLAY', 'Saccharomyces cerevisiae', 0.0423),
  ('ALLLLLRRFFLV', 'Saccharomyces cerevisiae', 0.432),
  ('ASCFFLFVLRVF', 'Saccharomyces cerevisiae', 0.0589),
  ('PHRLSRFILRLL', 'Saccharomyces cerevisiae', 0.562),
  ('EFEIALTLIRSI', 'Saccharomyces cerevisiae', 0.665),
  ('PPVLAPHLCFPP', 'Saccharomyces cerevisiae', 0.685),
  ('YIILLSRKCAFC', 'Saccharomyces cerevisiae', 0.573);

Under Saccharomyces cerevisiae, report protein stability index for VTSVARVVLHLL 0.526
